We begin with a simple list: items and their reported pIC50.
- MEASURED_ON: JNK1 (Homo sapiens)
- ASSAY_NAME: JNK1 kinase DELFIA (phosphorylation of biotinylated GST-ATF2)
- Type: biochemical
- CONDITIONS: read-out: JNK 1 IC50
Please treat pIC50 as minus the base-10 logarithm of the molar concentration.

In the examples that follow, each entry is paired with its recorded pIC50.
| COMPOUND | MEASURED_ON | pIC50 |
| --- | --- | --- |
| CC(C)CC(CO)NC(=O)c1cnc2c(C(=O)NCc3cnn(-c4ccc(S(=O)(=O)N(C)C)c(Cl)c4)c3)cccn12 (stereo not drawn) | JNK1 (Homo sapiens) | 8.00 |
| Cc1nc2ccc(CNC(=O)c3cccn4c(C(=O)NCC5(O)CCCCC5)c(-c5ccsc5)nc34)cc2[nH]1 | JNK1 (Homo sapiens) | 7.64 |
| Cc1nc2ccc(-n3cc(CNC(=O)c4cccn5c(C(=O)N[C@H](CO)CC(C)C)cnc45)cn3)cc2n1C | JNK1 (Homo sapiens) | 7.80 |
| Cc1cccc(-n2cc(CNC(=O)c3cccn4c(C(=O)N[C@H](CO)CC(C)C)cnc34)cn2)c1 | JNK1 (Homo sapiens) | 7.68 |
| Cc1nc2ccc(CNC(=O)c3cccn4c(C(=O)N[C@H](CO)CC(C)C)c(-c5ccccn5)nc34)cc2n1C | JNK1 (Homo sapiens) | 7.96 |

// below: pIC50 requested for another compound
input: State, in one line, measured pIC50 of `CC(C)C[C@@H](CO)NC(=O)c1cnc2c(C(=O)NCc3cnn(-c4ccc(S(=O)(=O)N(C)C)c(F)c4)c3)cccn12`
output: 7.96

---

# IC50 per record follows
- MEASURED_ON: JNK1 (Homo sapiens, UniProt P45983)
- Sequence (P45983 whole entry, species assumed): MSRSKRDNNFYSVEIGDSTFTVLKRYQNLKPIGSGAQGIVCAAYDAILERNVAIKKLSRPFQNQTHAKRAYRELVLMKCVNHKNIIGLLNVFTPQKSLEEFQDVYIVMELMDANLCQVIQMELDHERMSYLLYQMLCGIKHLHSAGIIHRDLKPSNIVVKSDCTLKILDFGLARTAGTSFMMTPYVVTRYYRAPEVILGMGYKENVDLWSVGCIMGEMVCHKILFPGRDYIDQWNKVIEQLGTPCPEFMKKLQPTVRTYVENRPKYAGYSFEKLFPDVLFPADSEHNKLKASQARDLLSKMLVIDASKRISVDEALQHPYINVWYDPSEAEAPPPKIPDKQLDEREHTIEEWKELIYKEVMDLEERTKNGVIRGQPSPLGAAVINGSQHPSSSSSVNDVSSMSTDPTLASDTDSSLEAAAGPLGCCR
- ASSAY_NAME: JNK1 kinase DELFIA (phosphorylation of biotinylated GST-ATF2)
- Type: biochemical
- CONDITIONS: DELFIA, 2 nM JNK1, final ATP 7 uM, 10 min pre-incubation; reported as range for a group

Some compounds with recorded IC50:
| STRUCTURE | IC50 |
| --- | --- |
| CC(C)C[C@@H](CO)NC(=O)c1c(-c2ccsc2)nc2c(C(=O)NCc3cnn(-c4ccccc4)c3)cccn12 | 6 to 20 nM |
| Cc1nc2ccc(CNC(=O)c3cccn4c(C(=O)N[C@H](CO)CC(C)C)c(-c5ccsc5)nc34)cc2s1 | 6 to 100 nM |
| CC(C)C[C@@H](CO)NC(=O)c1c(-c2cccs2)nc2c(C(=O)NCc3ccc4nc(N)sc4c3)cccn12 | 6 to 100 nM |

Now consider a different compound.
input: Answer with the recorded IC50 of `CC(C)C[C@@H](CO)NC(=O)c1c(-c2ccsc2)nc2c(C(=O)NCc3cnn(-c4cccc(C(F)(F)F)c4)c3)cccn12` only.
output: 6 to 100 nM

---

- MEASURED_ON: JNK2 (Homo sapiens, UniProt P45984)
- Sequence (P45984 whole entry, species assumed): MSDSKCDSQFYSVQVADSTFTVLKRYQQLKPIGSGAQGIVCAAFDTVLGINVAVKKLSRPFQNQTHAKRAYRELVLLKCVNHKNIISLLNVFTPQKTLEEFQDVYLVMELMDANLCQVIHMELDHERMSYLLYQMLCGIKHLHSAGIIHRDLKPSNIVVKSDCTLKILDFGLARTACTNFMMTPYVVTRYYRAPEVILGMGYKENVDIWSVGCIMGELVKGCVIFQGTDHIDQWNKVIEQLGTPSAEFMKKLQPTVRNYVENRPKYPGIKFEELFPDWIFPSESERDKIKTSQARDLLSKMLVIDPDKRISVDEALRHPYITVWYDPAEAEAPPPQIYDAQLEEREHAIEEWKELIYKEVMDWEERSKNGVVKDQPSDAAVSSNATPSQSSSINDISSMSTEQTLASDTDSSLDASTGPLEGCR
- ASSAY_NAME: JNK2 kinase DELFIA (phosphorylation of biotinylated GST-ATF2)
- CONDITIONS: final ATP 4 uM, reported as range for a group
pIC50: −log10 of the molar value.
PROPERTY_NAME: pIC50

Sample answers from the record:
| COMPOUND | PROPERTY_NAME | RECORDED_VALUE |
| --- | --- | --- |
| CC(C)C[C@@H](CO)NC(=O)c1c(-c2ccsc2)nc2c(C(=O)NCc3ccc4ncsc4c3)cccn12 [Compound 113] | pIC50 | 7.03 to 7.28 |
| CC(C)C[C@@H](CO)NC(=O)c1c(-c2ccsc2)nc2c(C(=O)NCC3CCN(C(=O)c4cccnc4)CC3)cccn12 [Compound 230] | pIC50 | 6.18 to 6.70 |
| CC(C)C[C@@H](CO)NC(=O)c1c(-c2cccs2)nc2c(C(=O)NCc3ccc4nc(N)sc4c3)cccn12 [Compound 542] | pIC50 | 7.34 to 8.40 |

Moving on to another compound below.
input: Tell me measured pIC50 for Cc1cccc(-n2cc(CNC(=O)c3cccn4c(C(=O)N[C@H](CO)CC(C)C)cnc34)cn2)c1 [Compound 605] please.
output: 7.34 to 8.40

---

Reported values of IC50 for individual entries
- MEASURED_ON: JNK2 (Homo sapiens)
- ASSAY_NAME: JNK2 kinase DELFIA (phosphorylation of biotinylated GST-ATF2)
- CONDITIONS: final ATP 4 uM, reported as range for a group

Solved cases below.
| COMPOUND | PROPERTY_NAME | RECORDED_VALUE |
| --- | --- | --- |
| Nc1nc2ccc(CNC(=O)c3cccn4c(C(=O)N[C@H](CO)c5ccccc5)c(-c5ccsc5)nc34)cc2s1 [Compound 16] | IC50 | 0.004 to 0.046 µM |
| Cc1nc2ccc(CNC(=O)c3cccn4c(C(=O)N[C@H](CO)CC(C)C)c(-c5ccsc5)nc34)cc2s1 [Compound 130] | IC50 | 0.004 to 0.046 µM |
| CC(C)C[C@H](CO)NC(=O)c1c(-c2ccsc2)nc2c(C(=O)NCc3ccc(N4CCCC4)nc3)cccn12 [Compound 291] | IC50 | 0.107 to 0.173 µM |
| CC(C)C[C@@H](CO)NC(=O)c1c(-c2ccsc2)nc2c(C(=O)NCc3ccc(-c4ccncc4)nc3)cccn12 [Compound 307] | IC50 | 0.004 to 0.046 µM |
| Nc1nc2ccc(CNC(=O)c3cccn4c(C(=O)NCC5(O)CCCCC5)c(-c5ccsc5)nc34)cc2s1 [Compound 15] | IC50 | 0.107 to 0.173 µM |

input: Note IC50 for the compound shown: Cc1cc(C(=O)NCc2ccc3nc(N)sc3c2)c2nc(-c3ccsc3)c(C(=O)N[C@@H](CO)CC(C)C)n2c1 [Compound 350]
output: 1.07 to 11.5 µM

input: Find the measured IC50 of CC(C)C[C@@H](CO)NC(=O)c1c(-c2ccccn2)nc2c(C(=O)NCc3ccc4nc(N)sc4c3)cccn12 [Compound 478] and report it.
output: 0.004 to 0.046 µM

input: Look up and state reported IC50 for Nc1nc2ccc(CNC(=O)c3cccn4c(C(=O)N[C@H]5CC[C@H](O)CC5)c(-c5ccsc5)nc34)cc2s1 [Compound 56]
output: 0.107 to 0.173 µM

input: Supply reported IC50 belonging to this compound: C[C@@H](CO)NC(=O)c1c(-c2ccsc2)nc2c(C(=O)NCc3ccc4nc(N)sc4c3)cccn12 [Compound 22]
output: 0.052 to 0.094 µM

input: Identify measured IC50 associated with CC(C)CNC(=O)c1c(-c2ccsc2)nc2c(C(=O)NCc3ccc4nc(N)sc4c3)cccn12 [Compound 38]
output: 0.201 to 0.666 µM

input: Give me measured IC50, please, for this compound: CC(C)C[C@@H](CO)NC(=O)c1c(-c2ccsc2)nc2c(C(=O)NCc3ccc4nc(N)sc4c3)cccn12 [Compound 14]
output: 0.004 to 0.046 µM

input: Answer with the recorded IC50 of CC[C@H](CO)NC(=O)c1c(-c2ccsc2)nc2c(C(=O)N[C@@H](C)c3ccc(S(C)(=O)=O)cc3)cccn12 [Compound 170] only.
output: 1.07 to 11.5 µM

input: Write down IC50 measured for item Cc1nc2ccc(CNC(=O)c3cccn4c(C(=O)N[C@H](CO)CC(C)C)c(C)nc34)cc2[nH]1 [Compound 599]
output: 0.004 to 0.046 µM

input: Please report IC50 for the following compound: CS(=O)(=O)c1ccc(CNC(=O)c2cccn3c(C(=O)N[C@H](CO)c4ccccc4)c(-c4ccsc4)nc23)cc1 [Compound 93]
output: 0.052 to 0.094 µM

input: Please look at this compound and report its IC50: CC[C@@H](CO)NC(=O)c1c(-c2ccsc2)nc2c(C(=O)NCc3ccc4nc(N)sc4c3)cccn12 [Compound 13]
output: 0.201 to 0.666 µM

input: Give recorded IC50. Nc1nc2ccc(CNC(=O)c3cccn4c(C(=O)NC[C@H]5CCCCC[C@H]5O)c(-c5ccsc5)nc34)cc2s1 [Compound 48]
output: 0.107 to 0.173 µM

input: Annotate the compound Cc1ccc(-n2cc(CNC(=O)c3cccn4c(C(=O)N[C@H](CO)CC(C)C)c(-c5ccsc5)nc34)cn2)cc1 [Compound 219] with its measured IC50.
output: 0.004 to 0.046 µM

input: Report IC50 for CC(C)C[C@@H](CO)NC(=O)c1c(-c2ccsc2)nc2c(C(=O)NCc3ccc(-c4cccnc4)nc3)cccn12 [Compound 306]
output: 0.004 to 0.046 µM

input: Give the reported IC50 for this compound. CC(C)C[C@@H](CO)NC(=O)c1c(-c2ccsc2)nc2c(C(=O)NCc3ccc(N4CCCCC4)nc3)cccn12 [Compound 301]
output: 0.004 to 0.046 µM

input: Indicate the recorded IC50 value for this compound: CCc1nc2c(C(=O)NCc3ccc4nc(C)n(C)c4c3)cccn2c1C(=O)N[C@H](CO)CC(C)C [Compound 463]
output: 0.004 to 0.046 µM

input: Could you please provide reported IC50 for CCc1nc2c(C(=O)NCc3ccc4nc(N)sc4c3)cccn2c1C(=O)N[C@H](CO)CC(C)C [Compound 456] ? Thanks!
output: 0.004 to 0.046 µM

input: Given CC(C)C[C@@H](CO)NC(=O)c1c(-c2cc(F)cc(F)c2)nc2c(C(=O)NCc3ccc4nc(N)sc4c3)cccn12 [Compound 544] , respond with its IC50.
output: 0.004 to 0.046 µM

input: For the compound CNc1nc2ccc(CNC(=O)c3cccn4c(C(=O)N[C@H](CO)CC(C)C)c(-c5ccsc5)nc34)cc2s1 [Compound 155] , report IC50.
output: 0.004 to 0.046 µM

input: Give the reported IC50 for this compound. CC(C)C[C@@H](CO)NC(=O)c1c(-c2ccsc2)nc2c(C(=O)NCc3ccnc(N4CCCC4)c3)cccn12 [Compound 296]
output: 0.004 to 0.046 µM

input: Identify measured IC50 corresponding to Cc1nc2ccc(CNC(=O)c3cccn4c(C(=O)N[C@H](CO)CC(C)C)c(-c5ccccn5)nc34)cc2n1C [Compound 483]
output: 0.004 to 0.046 µM

// data source = patent US20100298314A1
